- study.conditions: in isobutanol, 293.11 K
quantity.kind: solubility (mole fraction)
Just the number, please, no unit attached.

Task: Which value of solubility (mole fraction) has been reported for O=P(CCCO)(CCCO)CCCO in the records?
Output: 0.0122

* * *

- study.conditions: in ethanol, 308.17 K
quantity.kind: solubility (mole fraction)
Just the number, please, no unit attached.

Task: Which value of solubility (mole fraction) has been reported for O=P(CCCO)(CCCO)CCCO in the records?
Output: 0.036

* * *

- study.conditions: in isobutanol, 318.14 K
quantity.kind: solubility (mole fraction)
Just the number, please, no unit attached.

Task: Which value of solubility (mole fraction) has been reported for O=P(CCCO)(CCCO)CCCO in the records?
Output: 0.0357
